# Substrate: C[C@H](CCC(=O)O)[C@H]1CC[C@H]2[C@@H]3C(=O)C[C@@H]4CC(=O)CC[C@]4(C)[C@H]3CC(=O)[C@]12C
# Measurement notes: Enzyme-kinetic investigation of the 7β-HSDH mutants
# Assay type: biochemical, Collinsella aerofaciens
# Condition info: other: 0.5 mM NADH

>  <Protein>
Collinsella aerofaciens 7β-HSDH mutant G39D, SEQ ID NO:37 (parent SEQ ID NO:2) (Collinsella aerofaciens ATCC 25986; G39D) (protein, made in house) MNLREKYGEWGLILGATEGVGKAFCEKIAAGGMNVVMVDRREEKLNVLAGEIRETYGVETKVVRADFSQPGAAETVFAATEGLDMGFMSYVACLHSFGKIQDTPWEKHEAMINVNVVTFLKCFHHYMRIFAAQDRGAVINVSSMTGISSSPWNGQYGAGKAFILKMTEAVACECEGTGVDVEVITLGTTLTPSLLSNLPGGPQGEAVMKIALTPEECVDEAFEKLGKELSVIAGQRNKDSVHDWKANHTEDEYIRYMGSFYRD

>  <Km [µM]>
660

$$$$
>  <Protein>
Collinsella aerofaciens 7β-HSDH mutant G39D R40L, SEQ ID NO:38 (parent SEQ ID NO:2) (Collinsella aerofaciens ATCC 25986; G39D/R40L) (protein, made in house) MNLREKYGEWGLILGATEGVGKAFCEKIAAGGMNVVMVDLREEKLNVLAGEIRETYGVETKVVRADFSQPGAAETVFAATEGLDMGFMSYVACLHSFGKIQDTPWEKHEAMINVNVVTFLKCFHHYMRIFAAQDRGAVINVSSMTGISSSPWNGQYGAGKAFILKMTEAVACECEGTGVDVEVITLGTTLTPSLLSNLPGGPQGEAVMKIALTPEECVDEAFEKLGKELSVIAGQRNKDSVHDWKANHTEDEYIRYMGSFYRD

>  <Km [µM]>
560

$$$$
>  <Protein>
Collinsella aerofaciens 7β-HSDH mutant G39D R40V, SEQ ID NO:40 (parent SEQ ID NO:2) (Collinsella aerofaciens ATCC 25986; G39D/R40V) (protein, made in house) MNLREKYGEWGLILGATEGVGKAFCEKIAAGGMNVVMVDVREEKLNVLAGEIRETYGVETKVVRADFSQPGAAETVFAATEGLDMGFMSYVACLHSFGKIQDTPWEKHEAMINVNVVTFLKCFHHYMRIFAAQDRGAVINVSSMTGISSSPWNGQYGAGKAFILKMTEAVACECEGTGVDVEVITLGTTLTPSLLSNLPGGPQGEAVMKIALTPEECVDEAFEKLGKELSVIAGQRNKDSVHDWKANHTEDEYIRYMGSFYRD

>  <Km [µM]>
880

$$$$
>  <Protein>
Collinsella aerofaciens 7β-HSDH mutant G39D R40I, SEQ ID NO:39 (parent SEQ ID NO:2) (Collinsella aerofaciens ATCC 25986; G39D/R40I) (protein, made in house) MNLREKYGEWGLILGATEGVGKAFCEKIAAGGMNVVMVDIREEKLNVLAGEIRETYGVETKVVRADFSQPGAAETVFAATEGLDMGFMSYVACLHSFGKIQDTPWEKHEAMINVNVVTFLKCFHHYMRIFAAQDRGAVINVSSMTGISSSPWNGQYGAGKAFILKMTEAVACECEGTGVDVEVITLGTTLTPSLLSNLPGGPQGEAVMKIALTPEECVDEAFEKLGKELSVIAGQRNKDSVHDWKANHTEDEYIRYMGSFYRD

>  <Km [µM]>
920

$$$$
